The molecules listed here are annotated with their Avena fatua (efficacy in %).
Tested on: Avena fatua
assay explanation: Pre-emergence herbicidal action
Assay type: in vivo
experimental parameters: application rate 80 g/ha
endpoint label: Avena fatua (efficacy in %)

INSERT INTO measurements (molecule, subject_of_test, result) VALUES
  ('Cn1c(C(F)(F)F)cc(=O)n(-c2cc(Oc3cccnc3OCC(=O)OCCOC(F)(F)F)c(Cl)cc2F)c1=O [I.15-41]', 'Avena fatua', '90%'),
  ('Cn1c(C(F)(F)F)cc(=O)n(-c2cc(Oc3cccnc3OCC(=O)OC[Si](C)(C)C)c(Cl)cc2F)c1=O [I.15-201]', 'Avena fatua', '100%'),
  ('Cn1c(C(F)(F)F)cc(=O)n(-c2cc(Oc3cccnc3OCC(=O)OCCOCc3ccccc3)c(Cl)cc2F)c1=O [I.15-6]', 'Avena fatua', '100%');

----------
Test system: Pharbitis purpurea
assay explanation: Post-emergence herbicidal action
Assay type: in vivo
experimental parameters: application rate 20 g/ha, rated visually after about 3 weeks vs untreated controls
Description: a. Post-Emergence Herbicidal Action and Crop Plant Compatibility Seeds of monocotyledonous and dicotyledonous weeds and crop plants were placed in sandy loam in plastic or wood-fiber pots, covered with soil and cultivated in a greenhouse under controlled growth conditions. 2 to 3 weeks after sowing, the test plants were treated at the one-leaf stage. […]
The compounds listed here are annotated with their Pharbitis purpurea (efficacy in %).
endpoint label: Pharbitis purpurea (efficacy in %)

INSERT INTO assay_data (structure_notation, unit_info, quantitative_result) VALUES
  ('COCCOCCOC(=O)COc1ncccc1Oc1cc(-n2c(=O)cc(C(F)(F)F)n(C)c2=O)c(F)cc1[N+](=O)[O-]', '%', 100),
  ('COCCOC(=O)COc1ncccc1Oc1cc(-n2c(=O)cc(C(F)(F)F)n(C)c2=O)c(F)cc1C#N', '%', 100),
  ('Cn1c(C(F)(F)F)cc(=O)n(-c2cc(Oc3cccnc3OCC(=O)OCC#N)c(Br)cc2F)c1=O', '%', 100);
